Tested on: HIV-1 infection of TZM-bl cells
test-method-notes: HIV-1 infectivity enhancement assay, β-galactosidase luminescence
Assay type: cell-based
particulars: input.xlsx of the Pattern-Analysis script; infectivity relative to EF-C (peptide 59 = 1.00)
Assign classes using reported infectivity values and the ranges band A = under 0.05, band B = from 0.05 up to 0.5, band C = 0.5 and over, please.

Challenge: Category of CKAKAQA [compound 137] , please.
Response given: band A

Challenge: Form: Item = KFKFQF [compound 80] ; Class = ?
Response given: band B

Challenge: For this substance, which bin applies? KIKIKIKIWWWW [compound 129]
Response given: band C

Challenge: For KAKQAANMWQ [compound 69] , which infectivity bin applies?
Response given: band A

Challenge: Band of KIKIQIN [compound 77] ?
Response given: band B

Challenge: Class (by measured infectivity) for HHHHKIKIQINMYYYY [compound 138]
Response given: band C
